Numbers sourced from paper PMC10234138.

# Test system: A-549 (epithelial cancer cell line)
# PROCEDURE SUMMARY: Antiproliferative assay, A-549
# Assay type: cell-based
# STATED CONDITIONS: Homo sapiens, A549, read-out: Antiproliferative activity IC50 ± SEM, A-549
The following molecules are listed with their measured IC50 values.
MEASUREMENT LABEL: IC50 (nM)

[
  {
    "MOLECULE": "CO/C=C/c1c(C(=O)N2CCN(c3ccccc3)CC2)[nH]c2ccc(Cl)cc12",
    "MEASUREMENT LABEL": "IC50",
    "EXPERIMENTAL VALUE": 85
  },
  {
    "MOLECULE": "CO/C=C/c1c(C(=O)NC2c3ccccc3-c3ccccc32)[nH]c2ccc(Cl)cc12",
    "MEASUREMENT LABEL": "IC50",
    "EXPERIMENTAL VALUE": 102
  },
  {
    "MOLECULE": "C#Cc1cccc(Nc2ncnc3cc(OCCOC)c(OCCOC)cc23)c1 [Erlotinib, reference compound]",
    "MEASUREMENT LABEL": "IC50",
    "EXPERIMENTAL VALUE": 30
  },
  {
    "MOLECULE": "CO/C=C/c1c(C(=O)NCCc2ccc(N3CCCC3)cc2)[nH]c2ccc(Cl)cc12",
    "MEASUREMENT LABEL": "IC50",
    "EXPERIMENTAL VALUE": 70
  },
  {
    "MOLECULE": "CO/C=C/c1c(C(=O)NCCc2ccc(N3CCCCC3)cc2)[nH]c2ccc(Cl)cc12",
    "MEASUREMENT LABEL": "IC50",
    "EXPERIMENTAL VALUE": 76
  },
  {
    "MOLECULE": "O=c1c2[nH]c3ccc(Cl)cc3c2ccn1CCc1ccc(N2CCCCC2)cc1",
    "MEASUREMENT LABEL": "IC50",
    "EXPERIMENTAL VALUE": 57
  },
  {
    "MOLECULE": "CO/C=C/c1c(C(=O)NCc2ccccc2)[nH]c2ccc(Cl)cc12",
    "MEASUREMENT LABEL": "IC50",
    "EXPERIMENTAL VALUE": 67
  },
  {
    "MOLECULE": "CO/C=C/c1c(C(=O)NCc2nc3ccccc3[nH]2)[nH]c2ccc(Cl)cc12",
    "MEASUREMENT LABEL": "IC50",
    "EXPERIMENTAL VALUE": 40
  }
]

----------
# PROCEDURE SUMMARY: Cell viability assay
# Type: cell-based
# STATED CONDITIONS: human, MCF-10A mammary gland epithelial cells
MEASUREMENT LABEL: viability at 96 h, 50 µM (%)

[
  {
    "COMPOUND": "CO/C=C/c1c(C(=O)NCCc2ccc(N3CCCC3C)cc2)[nH]c2ccc(Cl)cc12 (centres unmarked) [Compound 5f]",
    "EXPERIMENTAL VALUE": 87
  },
  {
    "COMPOUND": "CO/C=C/c1c(C(=O)NCCc2ccc(N(C)C)cc2)[nH]c2ccc(Cl)cc12 [Compound 5d]",
    "EXPERIMENTAL VALUE": 89
  },
  {
    "COMPOUND": "CO/C=C/c1c(C(=O)NCCc2ccc(N3CCCC3)cc2)[nH]c2ccc(Cl)cc12 [Compound 5e]",
    "EXPERIMENTAL VALUE": 90
  },
  {
    "COMPOUND": "CO/C=C/c1c(C(=O)NC2c3ccccc3-c3ccccc32)[nH]c2ccc(Cl)cc12 [Compound 6b]",
    "EXPERIMENTAL VALUE": 87
  },
  {
    "COMPOUND": "CO/C=C/c1c(C(=O)NCCc2ccccc2)[nH]c2ccc(Cl)cc12 [Compound 5a]",
    "EXPERIMENTAL VALUE": 91
  },
  {
    "COMPOUND": "O=c1c2[nH]c3ccc(Cl)cc3c2ccn1CCc1ccccc1 [Compound 7a]",
    "EXPERIMENTAL VALUE": 90
  },
  {
    "COMPOUND": "CO/C=C/c1c(C(=O)N2CCC(Cc3ccccc3)CC2)[nH]c2ccc(Cl)cc12 [Compound 6e]",
    "EXPERIMENTAL VALUE": 91
  },
  {
    "COMPOUND": "O=c1c2[nH]c3ccc(Cl)cc3c2ccn1CCc1ccc(N2CCCCC2)cc1 [Compound 7b]",
    "EXPERIMENTAL VALUE": 89
  }
]
